// provenance: patent US20080311122A1

- subject-of-test: T1, recombinant HMG1 purified from E. coli as a calmodulin binding protein (CBP) fusion protein (human, UniProt A9RA84 1-215 (Papio anubis entry))
- T1 sequence: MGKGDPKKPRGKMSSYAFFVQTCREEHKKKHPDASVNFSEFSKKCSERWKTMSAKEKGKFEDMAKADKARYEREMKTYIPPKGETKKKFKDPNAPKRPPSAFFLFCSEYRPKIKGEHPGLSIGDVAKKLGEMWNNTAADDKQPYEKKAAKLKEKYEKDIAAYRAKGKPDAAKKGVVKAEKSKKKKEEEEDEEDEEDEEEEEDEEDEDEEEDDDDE
- assay-comment: cell-based or functional assay
Note to self: class = bucket of IC50, inhibition of rHMG1 stimulated IL-6 release from human PBMC, per L (below 0.7 nM), M (0.7 nM to below 1 nM), H (1 nM or more)

>  <binder>
anti-HMG1 antibody G34 (antibody, V domains shown) VH: EVQLLESGGGLVQPGGSLRLSCAASGFTFSHYMMGWVRQAPGKGLEWVSRISPSGGGTVYADSVKGRFTISRDNSKNTLYLQMNSLRAEDTAVYYCARGGNWNYISYYYYYLDVWGKGTTVTVSS VL: DIQMTQSPSSLSASVGDRVAITCRASQSIDTYLNWYQQKPGKAPKLLIYAASKLEDGVPSRFSGSGTGTDFTLTIRSLQPEDFASYFCQQSYSSPGITFGPGTKVEIK

>  <category-label>
M

$$$$
>  <binder>
anti-HMG1 antibody G35 (antibody, V domains shown) VH: EVQLLESGGGLVQPGGSLRLSCAASGFTFSWYKMVWVRQAPGKGLEWVSSIVPSGGITIYADSVKGRFTISRDNSKNTLYLQMNSLRAEDTAVYYCARVQQWLGRPYFDYWGQGTLVTVSS VL: DIQMTQSPLSLPVTPGEPASISCRSSQSLLHGNGYNYLDWYLQRPGQSPQLLIYSGSNRASGVPDRFSGSGSGTDFTLKISRVEAEDVGVYYCMQSLQSRTFGQGTKVEIK

>  <category-label>
L

$$$$
>  <binder>
anti-HMG1 antibody E11 (antibody, V domains shown) VH: EVQLLESGGGLVQPGGSLRLSCAASGFTFSRYQMNWVRQAPGKGLEWVSSISPSGGHTHYADSVKGRFTISRDNSKNTLYLQMNSLRAEDTAVYYCAKDGRQGKISTVDHWGQGTLVTVSS VL: DIQMTQSPGTLSLSPGERATLSCRASQSVRSNFLAWYQQKPGQAPRLLIYGASRRASGIPDRFSGSGFGADFTLSISRLEPEDFAVYYCQQYGSSPNTFGQGSRVEIK

>  <category-label>
H

$$$$

**Query** Into which bin does this binder go? anti-HMG1 antibody S17 (antibody, V domains shown) VH: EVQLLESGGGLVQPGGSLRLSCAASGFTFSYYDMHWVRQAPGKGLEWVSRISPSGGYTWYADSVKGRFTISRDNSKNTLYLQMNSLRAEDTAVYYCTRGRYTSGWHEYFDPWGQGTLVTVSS VL: DIQMTQSPSSLSASVGDRVTITCRASQSIGTYLNWYQQKPGTAPKVLIYAASSLQSGVPSRFSGSGSGTDFTLTISSLQPEDFSTYYCQQSYNTPRTFGQGTKLEIK
**Result** L

**Query** Into which bin does this binder go? anti-HMG1 antibody S12 (antibody, V domains shown) VH: EVQLLESGGGLVQPGGSLRLSCAASGFTFSKYIMHWVRQAPGKGLEWVSGIVPSGGLTEYADSVKGRFTISRDNSKNTLYLQMNSLRAEDTATYYCAKEIFGQFDYWGQGTLVTVSS VL: AQSALTQPPSVSAAPRQRVTISCSGSTSNIGNNAVTWYQYFPGKAPKLLIYSDNQRPSGVPDRFSGSKSGTSASLAITGLQAEDEADYYCQSYDRGLSVVFGGGTKLTVL
**Result** H
